tested on: RSV-A2; test: Virus inhibition assay (plaque reduction), RSV-A2 on Hep-2 cells; type: cell-based; conditions: human respiratory syncytial virus, HEp-2, 72 h, read-out: Residual Virus Infectivity (%) RSV-A2
Assign True to entries whose activity at 33 µM meets or exceeds 40%; assign False to the rest.

molecule	label-class
O=C(NCc1ccccc1)c1cc(-c2ccccc2)c(=O)n2c1sc1ccc(OC3CCCCC3)cc12 [Compound 3]	True
O=C(N[C@@H](CO)C(=O)O)c1cc(-c2ccccc2)c(=O)n2c1sc1ccc(OC3CCCCC3)cc12 [Compound 8]	True
O=C(NCc1ccc(O)cc1)c1cc(-c2ccccc2)c(=O)n2c1sc1ccc(OC3CCCCC3)cc12 [Compound 13]	False
O=C(O)C1CCN(C(=O)c2cc(-c3ccccc3)c(=O)n3c2sc2ccc(OC4CCCCC4)cc23)C1 (centres unmarked) [Compound 20]	True

* * *

experiment: in vitro; conditions: human, CC50 (µM) (95% CI), A549 cells, HCoV OC43 assay conditions
value-kind: CC50

compound	value-kind	observed-value
CC(C)(CC(=O)O)NC(=O)c1cc(-c2ccccc2)c(=O)n2c1sc1ccc(OC3CCCCC3)cc12 [Compound 1]	CC50	150 µM

* * *

# CC50 listing for each entry below
assay: Cell viability MTS assay on MDCK cells; conditions: dog

molecule	CC50 / µM
O=C(N[C@@H](Cc1ccc(O)cc1)C(=O)O)c1cc(-c2cccs2)c(=O)n2c1sc1ccc(OC3CCCCC3)cc12 [Compound 25]	86.1
CC(C)(CC(=O)O)NC(=O)c1cc(-c2ccccc2)c(=O)n2c1sc1ccc(OC3CCCCC3)cc12 [Compound 1]	41.1

* * *

assay: in vitro; settings: human

compound	CC50
NC(=O)c1ncn([C@@H]2O[C@H](CO)[C@@H](O)[C@H]2O)n1 [ribavirin, reference compound]	> 2.4 mM
